Target: Liver carboxylesterase 1 (Homo sapiens, UniProt P23141)
Sequence (P23141 whole entry): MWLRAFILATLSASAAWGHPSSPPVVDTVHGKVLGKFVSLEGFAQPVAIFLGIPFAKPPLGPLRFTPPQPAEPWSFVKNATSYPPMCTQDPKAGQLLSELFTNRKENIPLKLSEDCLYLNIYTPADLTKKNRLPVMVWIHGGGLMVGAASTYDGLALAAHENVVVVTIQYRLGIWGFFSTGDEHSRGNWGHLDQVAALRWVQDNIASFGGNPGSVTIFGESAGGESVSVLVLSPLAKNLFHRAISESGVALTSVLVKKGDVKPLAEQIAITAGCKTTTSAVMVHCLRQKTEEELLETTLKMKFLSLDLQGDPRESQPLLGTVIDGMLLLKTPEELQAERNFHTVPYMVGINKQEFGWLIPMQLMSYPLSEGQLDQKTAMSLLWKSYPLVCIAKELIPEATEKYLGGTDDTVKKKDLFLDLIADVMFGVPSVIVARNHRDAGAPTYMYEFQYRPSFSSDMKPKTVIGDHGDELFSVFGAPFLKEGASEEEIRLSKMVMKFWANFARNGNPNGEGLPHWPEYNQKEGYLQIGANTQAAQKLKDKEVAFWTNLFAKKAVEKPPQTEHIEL
Assay: Inhibition of TGH
Assay Metric: IC50

// known answers, use as guide
O=C(CCCCCCc1ccccc1)c1ccc(-c2ccccn2)nn1 | > 100 µM
O=C(O)c1cccc(-c2nnc(C(=O)CCCCCCc3ccccc3)s2)n1 | > 100 µM

Now for a further compound.
Ask | Please give the measured IC50 for this compound: O=C(O)c1cccc(-c2nc(C(=O)CCCCCCc3ccccc3)no2)n1
Reply | > 100 µM
